# System: SK-OV-3 ovarian
# ASSAY COMMENT: NCI-60 one-dose screen, 48 h (100 = growth as untreated, 0 = no growth, -100 = all killed)
# CONDITION DESCRIPTION: 10 µM unless noted
# Method: Growth inhibition of the SK-OV-3 human tumor cell line is measured as a screen for anti-cancer activity. Cells are grown in 96 well plates and exposed to the test compound for 48 hours. Compounds are tested at a single concentration, which is 10^-5 M for most compounds. The reported endpoint is percent growth (GI% or GIPRCNT), where numbers from 0 - 100% represent growth inhibition, and numbers from -100% - 0 represent cell death. For example, a value of 40 represents 60% growth inhibition. […]
About 83,000 compounds went through this panel and 20% of them were active in at least one assay; those are over-represented in the sample as a whole. Calls of active or inactive are those of the source. Rule for the calls: active = growth percent below 10; inactive = the rest.
Would you mind telling me the reported growth of each entry?

Challenge: Provide one value: measured growth of COc1cc2nc3c(=O)n(-c4ccc(C#N)cc4)cnn3c(=O)c2cc1OC
Response given: 101% (inactive)

Challenge: Identify growth associated with the molecule Cc1nc2sc(C(=O)Nc3ccccc3Cl)c(N)c2cc1C(C)O (configuration not stated)
Response given: 78.7% (inactive)

Challenge: Please look at this molecule and report its growth: N#CC(C#N)=C1NC(c2ccccc2)=C(c2ccccc2)C(c2ccccc2Cl)=C1C#N
Response given: 103% (inactive)

Challenge: Please list growth recorded for the molecule NC[C@@H]1CCN(c2cc3c(cc2F)c(=O)n(N)c(=O)n3Cc2ccc(-c3ccccc3)cc2)C1
Response given: 84.6% (inactive)

Challenge: Supply recorded growth for O=C(C[n+]1cccc2cc(Cl)ccc21)c1ccc2c(c1)CCCC2 here.
Response given: 16.9% (inactive)

Challenge: Look up and report measured growth for this entry: O=C(CCl)N1CCCc2ccccc21
Response given: 119% (inactive)

Challenge: Return value of growth for input O=C1c2ccccc2C(=O)c2c1oc1c2c(=O)[nH]c2ccccc21 , no commentary.
Response given: 104% (inactive)

Challenge: Quote growth reported for Nc1c(C(=O)Nc2ccccn2)sc2nc3c(cc12)CCCCC3 please.
Response given: 36.2% (inactive)

Challenge: Give the value of growth reported for the following: COc1ccc(/C=C/C(=O)/C=C(/C=C/c2ccc(OC)c(OC)c2)OB(F)F)cc1OC
Response given: 81.9% (inactive)

Challenge: Supply growth value. Item: N#Cc1ccc(Oc2ccc3ccc(=O)oc3c2)cc1
Response given: 112% (inactive)

Challenge: Please report the measured growth for Cc1ccc(C2=N[C@H]3CCC[C@@H]3N(c3ccccc3)C(C(Cl)Cl)=N2)cc1
Response given: 111% (inactive)

Challenge: Determine from records and report growth for COC(=O)CCc1n(Cc2ccc3ccccc3c2)c2ccccc2[n+]1Cc1ccc2ccccc2c1
Response given: 10.8% (inactive)

Challenge: Fill in reported growth for this entry: CCC[S@@](=O)c1ccc2nc(NC(=O)OC)[nH]c2c1
Response given: 63.6% (inactive)

Challenge: Look up and report measured growth for this entry: C=C(C)[C@@H]1CC[C@]2(C(=O)O)CC[C@]3(C)[C@H](CC[C@@H]4[C@@]5(C)C[C@@H](CC#Cc6ccc(Cl)cc6)C(=O)C(C)(C)[C@@H]5CC[C@]43C)[C@@H]12
Response given: 61.5% (inactive)

Challenge: Answer with reported growth of CCCn1cc(/C=N\N=C2\C(=O)Nc3ccc(C)cc32)c2ccccc21
Response given: 88.4% (inactive)

Challenge: Note growth for the molecule shown: CSc1nc(-c2ccc(F)cc2)c(C#N)c(N2CCOCC2)n1
Response given: 97.3% (inactive)

Challenge: Return growth for the following molecule: Nc1cc(N)nc(SCC(=O)O)n1
Response given: 105% (inactive)

Challenge: Name the recorded growth of the item CCCCn1c(=O)c(/C=C/C(=O)/C=C/c2ccc(O)c(OC)c2)cc2ccc(Cl)cc21 in your answer.
Response given: 59.2% (inactive)

Challenge: Specify reported growth for the molecule shown: COc1ccc(/C=C/C(=O)C(CC2CCC2)C(=O)/C=C/c2ccc(OC)c(OC)c2)cc1OC
Response given: 16.2% (inactive)

Challenge: # return recorded growth for input COc1ccc(-c2nnc(N3CCN(C(=O)CN4CCN(c5ccccc5)CC4)CC3)nc2-c2ccc(OC)cc2)cc1
Response given: 74.4% (inactive)

Challenge: Item Nc1ccc2c(c1)C(=O)C(=O)c1c-2nc2ccccn12 : provide growth
Response given: 30.7% (inactive)

Challenge: Dear colleague, please send me the reported growth for C=C1C(=O)O[C@H]2[C@H]1CC/C(COC(=O)Nc1nc3ccccc3[nH]1)=C\CC[C@@]1(C)O[C@@H]21 when you can.
Response given: 89.1% (inactive)

Challenge: Name the recorded growth of the molecule listed here: Cc1nc2sc(C(=O)Nc3cccc4ccccc34)c(N)c2cc1C(C)O (configuration not stated)
Response given: 32.1% (inactive)

Challenge: Fill in growth for record COc1cccc(NC(=O)Nc2ccc(Oc3ncnc4[nH]c(C)c(C)c34)cc2)c1
Response given: 107% (inactive)

Challenge: Identify measured growth associated with O=C(O)c1cn(C2CC2)c2cc(N3CCN(Cc4nnc(Nc5ccccc5)o4)CC3)c(F)cc2c1=O
Response given: 108% (inactive)

Challenge: Identify measured growth associated with COc1ccc(Sc2[nH]c(C(C)=O)c3ccccc23)cc1
Response given: 19% (inactive)

Challenge: For the molecule Cc1ccc(C(=O)O)o1 , give its measured growth value.
Response given: 101% (inactive)

* * *

# Tested on: COLO 205 colon
# ASSAY COMMENT: NCI-60 one-dose screen, 48 h (100 = growth as untreated, 0 = no growth, -100 = all killed)
# CONDITION DESCRIPTION: 10 µM unless noted
The panel holds about 83,000 compounds, 20% with a hit somewhere; the sample as a whole holds those more often.
MEASURED PARAMETER: growth (%)
Respond with the bare value in %.

Challenge: Hello, please tell me recorded growth for this one: COc1ccc(-c2[nH]c3ccccc3c2C=C(C#N)C#N)cc1
Response given: -8.28

Challenge: Entry CC(C)NS(=O)(=O)c1cccc(-c2ccc3c(=O)n(CCCN)c4c(c3c2)C(=O)c2ccccc2-4)c1 needs its growth filled in; supply it.
Response given: 106

Challenge: Output measured growth for this item: O=C1c2ccccc2C(=O)c2c1oc1c2c(=O)[nH]c2ccccc21
Response given: 109

Challenge: Output measured growth for this item: Cc1c(Cl)cccc1NC(=O)c1sc2nc3c(cc2c1N)COCC3
Response given: 24.1

Challenge: Answer with the recorded growth of CC(=O)OC[C@]12CC[C@@H](c3cn(Cc4ccc(Cn5cc([C@@H]6CC[C@]7(COC(C)=O)CC[C@]8(C)[C@H](CC[C@@H]9[C@@]%10(C)CC[C@H](OC(C)=O)C(C)(C)[C@@H]%10CC[C@]98C)[C@@H]67)nn5)cc4)nn3)[C@@H]1[C@H]1CC[C@@H]3[C@@]4(C)CC[C@H](OC(C)=O)C(C)(C)[C@@H]4CC[C@@]3(C)[C@]1(C)CC2 only.
Response given: 105

Challenge: Quickly give me recorded growth for CN(C)CCCn1c2c(c3cc(-c4ccco4)ccc3c1=O)C(=O)c1ccccc1-2
Response given: 52.9

Challenge: Kindly indicate its recorded growth. Item: COc1cc(F)c(-c2nc3c(C)cccc3n2Cc2c(F)cccc2F)c(F)c1
Response given: 98

Challenge: Look up and state reported growth for NC[C@@H]1CCN(c2cc3c(cc2F)c(=O)n(N)c(=O)n3Cc2ccc(-c3ccccc3)cc2)C1
Response given: 88.6

Challenge: State, in one line, measured growth of COC(=O)c1ccc2c(c1)NC(=O)[C@@H]1CCCN21
Response given: 108

* * *

Would you mind telling me the reported growth of each entry?
# Tested on: PC-3 prostate
# ASSAY COMMENT: NCI-60 one-dose screen, 48 h (100 = growth as untreated, 0 = no growth, -100 = all killed)
# CONDITION DESCRIPTION: 10 µM unless noted
The panel holds about 83,000 compounds, 20% with a hit somewhere; the sample as a whole holds those more often.
Number only, in %; omit the unit.

Challenge: Recall the reported growth of COc1ccc(/C=C(/C(=O)N2CCN(Cc3ccccc3)CC2)c2cc(OC)c(OC)c(OC)c2)cc1O when tested on PC-3 prostate.
Response given: 34.8

Challenge: Answer with growth of CC(=O)ON1CCCC(P(=O)(OCOC(=O)C(C)(C)C)OCOC(=O)C(C)(C)C)C1=O (centres undefined) measured for PC-3 prostate.
Response given: 17.7

Challenge: Give growth; test system PC-3 prostate; compound COc1cc(-c2csc(NC(=O)Nc3cc(Cl)cc(Cl)c3)n2)cc(OC)c1OC
Response given: 10.7

Challenge: Lab note: PC-3 prostate assay, enter growth for COc1ccc(Cc2nc(C#N)c(N3CCN(c4ccc(F)cc4)CC3)o2)cc1 here
Response given: 85.9
